Observed Kd values for Somatostatin receptor type 1 (Homo sapiens) are listed in what follows.
Note: a bare number is incomplete; add the unit.

Check out these entries, answers already filled in.
C[C@@H](Cc1ccc2nsnc2c1)CN1C[C@@H]2CCCC[C@@H]2[C@H](C(=O)N2CCN(c3ccc(F)c(F)c3)CC2)C1    1550 nM
COc1ccc(C[C@H](C)CN2C[C@@H]3CCCC[C@@H]3[C@H](C(=O)N3CCN(c4ccc(F)c(F)c4)CC3)C2)cn1.O=C(O)/C=C/C(=O)O    2040 nM

--- query ---
Data request: Would you kindly share the measured Kd for O=C(C1CCCN(CCC2c3ccccc3-c3ccccc32)C1)N1CCN(c2ccc([N+](=O)[O-])cc2)CC1 (racemic) ?
Data returned: 120 nM

---

# Experimental Protocol: Apparent terminal half life in rat plasma at 1 mg/kg, iv
# Assay type: ADME, organism-based
# Set-up: dose 1 mg/kg, route intravenous
Property Name: half-life (min)
Give bare numbers, in min.

Data request: Would you kindly share the measured half-life for COc1ccc(C[C@H](C)CN2C[C@@H]3CCCC[C@@H]3[C@H](C(=O)N3CCN(c4ccc(F)c(F)c4)CC3)C2)cn1.O=C(O)/C=C/C(=O)O ?
Data returned: 336

---

# System Under Test: Somatostatin receptor type 3 (Homo sapiens, UniProt P32745)
# Sequence (P32745 whole entry): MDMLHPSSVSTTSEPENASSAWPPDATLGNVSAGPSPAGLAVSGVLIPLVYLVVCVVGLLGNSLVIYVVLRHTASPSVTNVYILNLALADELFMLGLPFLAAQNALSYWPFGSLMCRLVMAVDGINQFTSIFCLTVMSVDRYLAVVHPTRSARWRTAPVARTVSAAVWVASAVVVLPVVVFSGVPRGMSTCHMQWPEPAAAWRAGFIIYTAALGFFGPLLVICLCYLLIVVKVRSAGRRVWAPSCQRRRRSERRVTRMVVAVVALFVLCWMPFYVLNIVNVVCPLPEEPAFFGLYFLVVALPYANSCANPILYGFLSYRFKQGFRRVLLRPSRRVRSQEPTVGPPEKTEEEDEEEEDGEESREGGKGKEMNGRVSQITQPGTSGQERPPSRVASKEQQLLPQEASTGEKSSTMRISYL
Property Name: Kd (nM)
Numbers only, in nM.

Check out these entries, answers already filled in.
CC(Cc1ccc2c(c1)OCO2)CN1CC2CCCCC2C(C(=O)N2CCN(c3cccc4nonc34)CC2)C1 (stereo not given)    91.2
C[C@@H](Cc1ccc2c(c1)OCO2)CN1C[C@@H]2CCCC[C@@H]2[C@H](C(=O)N2CCN(c3ccc(F)c(F)c3)CC2)C1    8.51
CC(Cc1ccc2c(c1)OCO2)CN1CC2CCCCC2C(C(=O)N2CCN(c3ccc4nsnc4n3)CC2)C1 (stereo not given)    95.5

Please state Kd for every molecule in the list that follows.
1. CC(Cc1ccc2c(c1)OCO2)CN1CC2CCCCC2C(C(=O)N2CCN(c3cccc(Cl)n3)CC2)C1 (stereo not given)
2. COC(=O)c1cc(C[C@H](C)CN2C[C@@H]3CCCC[C@@H]3[C@H](C(=O)N3CCN(c4ccc([N+](=O)[O-])cc4)CC3)C2)cc(C(=O)OC)c1
3. C[C@@H](Cc1ccc2nccnc2c1)CN1C[C@@H]2CCCC[C@@H]2[C@H](C(=O)N2CCN(c3ccc(F)c(F)c3)CC2)C1

Data returned:
[407, 1.23, 10.7]

Please state Kd for every molecule in the list that follows.
1. C[C@@H](Cc1ccc2ocnc2c1)CN1C[C@@H]2CCCC[C@@H]2[C@H](C(=O)N2CCN(c3ccc(F)c(F)c3)CC2)C1
2. CC(Cc1ccc2c(c1)OCO2)CN1CC2CCCCC2C(C(=O)N2CCN(c3ccc(C#N)cn3)CC2)C1 (stereo not given)
3. CC(Cc1ccc2c(c1)OCO2)CN1CC2CCCCC2C(C(=O)N2CCN(c3cccc(C(F)(F)F)n3)CC2)C1 (stereo not given)
4. CCNc1ccc(C[C@H](C)CN2C[C@@H]3CCCC[C@@H]3[C@H](C(=O)N3CCN(c4ccc(F)c(F)c4)CC3)C2)cn1
5. COC(=O)c1cc(CC(C)CN2C[C@H]3CCCC[C@H]3[C@@H](C(=O)N3CCN(c4ccc([N+](=O)[O-])cc4)CC3)C2)cc(C(=O)OC)c1 (mixture of isomers)
6. COc1ccc(C[C@@H](C)CN2C[C@H]3CCCC[C@H]3[C@@H](C(=O)N3CCN(c4ccc(F)c(F)c4)CC3)C2)cn1

Data returned:
11
79.4
741
28.8
107
3630

Please state Kd for every molecule in the list that follows.
1. CC(Cc1ccc2c(c1)OCO2)CN1CC2CCCCC2C(C(=O)N2CCN(c3cccc(F)c3)CC2)C1 (stereo not given)
2. COC(=O)c1cc(CC(C)CN2C[C@@H]3CCCC[C@@H]3[C@H](C(=O)N3CCN(c4ccc([N+](=O)[O-])cc4)CC3)C2)cc(C(=O)OC)c1 (mixture of isomers)
3. CC(Cc1ccc2c(c1)OCO2)CN1C[C@H]2CCCC[C@H]2[C@H](C(=O)N2CCN(c3ccc([N+](=O)[O-])cc3)CC2)C1 (mixture of isomers)

Data returned:
1. 200
2. 1.35
3. 1120

---

# System Under Test: Alpha-1A adrenergic receptor (Homo sapiens, UniProt P35348)
# Sequence (P35348 whole entry): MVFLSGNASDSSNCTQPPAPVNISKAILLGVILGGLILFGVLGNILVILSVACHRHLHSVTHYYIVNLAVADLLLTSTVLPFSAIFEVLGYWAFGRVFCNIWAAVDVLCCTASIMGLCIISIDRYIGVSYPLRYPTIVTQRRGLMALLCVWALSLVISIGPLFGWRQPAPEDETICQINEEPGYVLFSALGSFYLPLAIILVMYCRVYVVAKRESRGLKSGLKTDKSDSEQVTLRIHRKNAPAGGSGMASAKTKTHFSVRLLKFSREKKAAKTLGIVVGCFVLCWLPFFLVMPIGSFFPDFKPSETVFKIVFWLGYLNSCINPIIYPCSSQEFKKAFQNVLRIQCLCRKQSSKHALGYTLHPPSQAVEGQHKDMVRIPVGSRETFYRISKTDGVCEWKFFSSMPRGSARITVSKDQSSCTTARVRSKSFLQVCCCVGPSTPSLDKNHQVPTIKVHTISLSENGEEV
Property Name: Kd (µM)
Answers are plain numbers, in µM.

Data request: Would you kindly share the measured Kd for COc1ccc(C[C@H](C)CN2C[C@@H]3CCCC[C@@H]3[C@H](C(=O)N3CCN(c4ccc(F)c(F)c4)CC3)C2)cn1.O=C(O)/C=C/C(=O)O ?
Data returned: 0.692

---

Observed pKd values for Somatostatin receptor type 4 (Homo sapiens, UniProt P31391) are listed in what follows.
Numbers only, as −log10 of the molar value.

COc1ccc(C[C@H](C)CN2C[C@@H]3CCCC[C@@H]3[C@H](C(=O)N3CCN(c4ccc(F)c(F)c4)CC3)C2)cn1.O=C(O)/C=C/C(=O)O    6.83

Data request: Would you kindly share the measured pKd for C[C@@H](Cc1ccc2nsnc2c1)CN1C[C@@H]2CCCC[C@@H]2[C@H](C(=O)N2CCN(c3ccc(F)c(F)c3)CC2)C1 ?
Data returned: 5.99

---

Observed pKd values for Somatostatin receptor type 1 (Homo sapiens, UniProt P30872) are listed in what follows.
Numbers only, as −log10 of the molar value.

O=C(CCN(CCC1c2ccccc2-c2ccccc21)CC1CC1)N1CCN(c2ccc([N+](=O)[O-])cc2)CC1    7.11

Please state pKd for every compound in the list that follows.
1. COc1ccc(C[C@@H](C)CN2C[C@H]3CCCC[C@H]3[C@@H](C(=O)N3CCN(c4ccc(F)c(F)c4)CC3)C2)cn1
2. COC(=O)c1cc(C[C@H](C)CN2C[C@@H]3CCCC[C@@H]3[C@H](C(=O)N3CCN(c4ccc([N+](=O)[O-])cc4)CC3)C2)cc(C(=O)OC)c1

Data returned:
1. 6.14
2. 6.03

---

# System Under Test: Somatostatin receptor type 1 (Homo sapiens)
# Sequence (P30872 whole entry): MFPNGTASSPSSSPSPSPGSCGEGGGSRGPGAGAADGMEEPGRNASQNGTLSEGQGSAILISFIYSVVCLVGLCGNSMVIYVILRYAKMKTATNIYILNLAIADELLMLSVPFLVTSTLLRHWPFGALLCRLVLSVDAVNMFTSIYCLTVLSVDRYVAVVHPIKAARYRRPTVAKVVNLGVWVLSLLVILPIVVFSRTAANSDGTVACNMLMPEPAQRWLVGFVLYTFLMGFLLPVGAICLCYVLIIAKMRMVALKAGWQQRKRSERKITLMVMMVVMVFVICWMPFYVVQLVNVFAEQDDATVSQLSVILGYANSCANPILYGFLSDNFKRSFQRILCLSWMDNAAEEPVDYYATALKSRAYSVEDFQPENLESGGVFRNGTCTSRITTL
Property Name: Kd (nM)
Numbers only, in nM.

Check out these entries, answers already filled in.
CC(Cc1ccc2c(c1)OCO2)CN1C[C@H](C(=O)N2CCN(c3ccc([N+](=O)[O-])cc3)CC2)C[C@@H]2CCCC[C@@H]21 (mixture of isomers)    490
Cc1nc2cc(C[C@H](C)CN3C[C@@H]4CCCC[C@@H]4[C@H](C(=O)N4CCN(c5ccc(F)c(F)c5)CC4)C3)ccc2o1    1380

--- query ---
Data request: Would you kindly share the measured Kd for COC(=O)c1cc(C[C@@H](C)CN2C[C@@H]3CCCC[C@@H]3[C@H](C(=O)N3CCN(c4ccc([N+](=O)[O-])cc4)CC3)C2)cc(C(=O)OC)c1 ?
Data returned: 437

---

# System Under Test: UniProt:P30935
# Sequence (P30935 whole entry): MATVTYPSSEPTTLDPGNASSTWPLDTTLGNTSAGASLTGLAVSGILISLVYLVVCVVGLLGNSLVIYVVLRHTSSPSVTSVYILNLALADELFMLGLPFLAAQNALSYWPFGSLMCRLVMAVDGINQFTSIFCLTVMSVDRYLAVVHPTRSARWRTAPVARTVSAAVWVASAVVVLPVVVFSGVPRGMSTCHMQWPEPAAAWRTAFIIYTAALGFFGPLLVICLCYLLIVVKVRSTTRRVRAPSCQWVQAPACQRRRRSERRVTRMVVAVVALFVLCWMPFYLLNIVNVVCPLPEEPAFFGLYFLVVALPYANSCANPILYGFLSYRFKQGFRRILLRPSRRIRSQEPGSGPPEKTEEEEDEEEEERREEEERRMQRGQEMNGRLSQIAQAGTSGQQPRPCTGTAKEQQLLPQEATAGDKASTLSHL
# Experimental Protocol: Displacement of [125I]SRIF-28 from mouse recombinant SST3 receptor
Property Name: Kd (nM)
Give bare numbers, in nM.

Data request: Would you kindly share the measured Kd for COc1ccc(C[C@H](C)CN2C[C@@H]3CCCC[C@@H]3[C@H](C(=O)N3CCN(c4ccc(F)c(F)c4)CC3)C2)cn1.O=C(O)/C=C/C(=O)O ?
Data returned: 4.9

---

# Experimental Protocol: Oral bioavailability in rat at 3 mg/kg
# Format: ADME, organism-based
# Measurement Context: in vivo
Property Name: bioavailability (%)
Give bare numbers, in %.

Data request: Would you kindly share the measured bioavailability for COc1ccc(C[C@H](C)CN2C[C@@H]3CCCC[C@@H]3[C@H](C(=O)N3CCN(c4ccc(F)c(F)c4)CC3)C2)cn1.O=C(O)/C=C/C(=O)O ?
Data returned: 21
